Molecular target: α4β2 nAChR from concatenated β-6-α alone (Homo sapiens, UniProt P17787+P43681)
Assay: two-electrode voltage-clamp, oocytes, β-6-α alone
value-type: EC50 (µM)

compound="N#Cc1cccc(-c2nc(-c3cccnc3)no2)c1 [NS9283]" measured_target="α4β2 nAChR from concatenated β-6-α alone (Homo sapiens, UniProt P17787+P43681)" value_type=EC50 measured_value=12.6

---

Biological target: α4β2 nAChR from β-3a-α-β-α-α (Homo sapiens, UniProt P17787+P43681)
Sequence (P17787 26-502): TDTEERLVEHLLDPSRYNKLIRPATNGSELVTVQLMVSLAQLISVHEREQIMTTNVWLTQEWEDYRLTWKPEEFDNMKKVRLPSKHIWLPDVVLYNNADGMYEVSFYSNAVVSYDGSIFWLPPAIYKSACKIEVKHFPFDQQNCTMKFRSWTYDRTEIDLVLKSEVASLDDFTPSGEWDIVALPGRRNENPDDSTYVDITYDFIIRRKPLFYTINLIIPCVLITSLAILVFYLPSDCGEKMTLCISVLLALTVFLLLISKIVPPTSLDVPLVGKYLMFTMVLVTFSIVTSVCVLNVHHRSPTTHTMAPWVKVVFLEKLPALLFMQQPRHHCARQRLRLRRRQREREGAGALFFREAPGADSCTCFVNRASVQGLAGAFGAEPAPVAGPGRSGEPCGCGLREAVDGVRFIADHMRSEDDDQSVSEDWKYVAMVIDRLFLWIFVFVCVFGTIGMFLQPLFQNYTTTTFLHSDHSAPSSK
Sequence (P43681 27-627): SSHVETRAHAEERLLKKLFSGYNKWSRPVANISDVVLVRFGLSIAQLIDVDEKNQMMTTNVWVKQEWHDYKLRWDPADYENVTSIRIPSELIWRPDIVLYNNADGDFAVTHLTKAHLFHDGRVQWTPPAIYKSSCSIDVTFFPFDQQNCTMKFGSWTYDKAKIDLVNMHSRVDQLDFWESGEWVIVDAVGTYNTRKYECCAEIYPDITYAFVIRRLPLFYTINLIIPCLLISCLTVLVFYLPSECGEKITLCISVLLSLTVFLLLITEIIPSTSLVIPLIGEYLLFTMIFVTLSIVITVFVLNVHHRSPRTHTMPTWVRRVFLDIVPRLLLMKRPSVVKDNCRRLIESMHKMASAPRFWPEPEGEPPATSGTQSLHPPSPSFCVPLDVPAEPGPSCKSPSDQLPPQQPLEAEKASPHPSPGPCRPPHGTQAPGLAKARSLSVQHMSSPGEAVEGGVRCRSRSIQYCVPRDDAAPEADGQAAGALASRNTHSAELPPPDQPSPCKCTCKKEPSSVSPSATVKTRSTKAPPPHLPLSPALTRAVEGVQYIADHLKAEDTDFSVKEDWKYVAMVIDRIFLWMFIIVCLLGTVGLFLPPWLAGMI
Sequence (P17787 26-502): as the sequence (P17787 26-502) above
Sequence (P43681 27-627): as the sequence (P43681 27-627) above
Sequence (P43681 27-627): as above
Assay: two-electrode voltage-clamp, oocytes, pentameric β-3a-α-β-α-α
pEC50: −log10 of the molar value.
value-type: pEC50

mol_smiles=N#Cc1cccc(-c2nc(-c3cccnc3)no2)c1 measured_value=5.10

---

Biological target: α4β2 nAChR from β-21a-α^VFL-α-β-α (Homo sapiens, UniProt P17787+P43681, H142V/Q150F/T152L)
Sequence (P43681 27-627 H142V/Q150F/T152L, one chain of several): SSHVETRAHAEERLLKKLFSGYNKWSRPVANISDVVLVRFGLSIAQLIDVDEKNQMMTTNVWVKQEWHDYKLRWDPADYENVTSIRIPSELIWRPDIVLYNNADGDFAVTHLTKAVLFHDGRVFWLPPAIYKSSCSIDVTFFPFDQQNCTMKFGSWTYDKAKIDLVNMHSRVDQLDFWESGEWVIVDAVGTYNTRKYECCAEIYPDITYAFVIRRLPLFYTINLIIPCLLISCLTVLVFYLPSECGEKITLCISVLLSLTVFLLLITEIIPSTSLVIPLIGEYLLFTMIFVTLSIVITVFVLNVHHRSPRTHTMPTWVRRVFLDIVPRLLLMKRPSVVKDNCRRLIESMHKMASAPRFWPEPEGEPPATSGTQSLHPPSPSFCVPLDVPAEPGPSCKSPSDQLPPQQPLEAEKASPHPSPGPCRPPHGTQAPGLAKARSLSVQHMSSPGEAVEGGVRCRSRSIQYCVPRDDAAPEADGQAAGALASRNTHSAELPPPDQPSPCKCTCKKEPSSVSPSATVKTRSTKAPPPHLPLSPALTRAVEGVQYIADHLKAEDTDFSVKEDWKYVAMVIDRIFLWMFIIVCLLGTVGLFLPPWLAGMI
Assay: two-electrode voltage-clamp, oocytes, pentameric β-21a-α^VFL-α-β-α
pEC50: −log10 of the molar value.
value-type: pEC50

mol_smiles=N#Cc1cccc(-c2nc(-c3cccnc3)no2)c1 value_type=pEC50 measured_value=5.20

---

Target: α4β2 nAChR from β-6-α-9-β-6-α and α4^VFL (1:1) (Homo sapiens, UniProt P17787+P43681, H142V/Q150F/T152L)
Sequence (P17787 26-502): as the sequence (P17787 26-502) above
Sequence (P43681 27-627, stated change not applied): as the sequence (P43681 27-627) above
Sequence (P43681 27-627 H142V/Q150F/T152L): as the sequence (P43681 27-627) above, with H116V, Q124F, T126L counted along it
Experiment: two-electrode voltage-clamp, oocytes, β-6-α-9-β-6-α and α4^VFL 1:1
Details: NS9283 pEC50, β-6-α-9-β-6-α + α4^VFL 1:1; coapplied with 10 µM ACh
pEC50: −log10 of the molar value.
value-type: pEC50

mol_smiles=N#Cc1cccc(-c2nc(-c3cccnc3)no2)c1 measured_value=5.00

---

Biological target: α4β2 nAChR from β-3a-α and α4^VFL (1:1) (Homo sapiens, UniProt P17787+P43681, H142V/Q150F/T152L)
Sequence (P17787 26-502): as the sequence (P17787 26-502) above
Sequence (P43681 27-627, stated change not applied): as the sequence (P43681 27-627) above
Sequence (P43681 27-627 H142V/Q150F/T152L): as the sequence (P43681 27-627) above, with H116V, Q124F, T126L counted along it
Assay: two-electrode voltage-clamp, oocytes, β-3a-α and α4^VFL
Settings: NS9283 pEC50, β-3a-α + α4^VFL; coapplied with 10 µM ACh
pEC50: −log10 of the molar value.
value-type: pEC50

mol_smiles=N#Cc1cccc(-c2nc(-c3cccnc3)no2)c1 measured_value=5.20

---

Target: α4β2 nAChR from β-9a-α and α4 (1:1) (Homo sapiens, UniProt P17787+P43681)
Assay: two-electrode voltage-clamp, oocytes, β-9a-α and α4
Details: NS9283 pEC50, β-9a-α + α4; coapplied with 10 µM ACh
value-type: EC50 (µM)

mol_smiles=N#Cc1cccc(-c2nc(-c3cccnc3)no2)c1 display_unit=µM measured_value=12.6

---

Target: α4β2 nAChR from β-3a-α^VFL-α-β-α (Homo sapiens, UniProt P17787+P43681, H142V/Q150F/T152L)
Sequence (P17787 26-502): as the sequence (P17787 26-502) above
Sequence (P43681 27-627 H142V/Q150F/T152L): as the sequence (P43681 27-627) above, with H116V, Q124F, T126L counted along it
Sequence (P43681 27-627, stated change not applied): as the sequence (P43681 27-627) above
Sequence (P17787 26-502): as the sequence (P17787 26-502) above
Sequence (P43681 27-627, stated change not applied): as the sequence (P43681 27-627) above
Assay: two-electrode voltage-clamp, oocytes, pentameric β-3a-α^VFL-α-β-α
Type: cell-based
Settings: NS9283 pEC50, β-3a-α^VFL-α-β-α; coapplied with 10 µM ACh
value-type: EC50 (µM)

mol_smiles=N#Cc1cccc(-c2nc(-c3cccnc3)no2)c1 measured_value=7.94

---

Target: α4β2 nAChR from β-3a-α^VFL-β-α-α (Homo sapiens, UniProt P17787+P43681, H142V/Q150F/T152L)
Sequence (P43681 27-627 H142V/Q150F/T152L, one chain of several): as the sequence (P43681 27-627 H142V/Q150F/T152L, one chain of several) above
Assay: two-electrode voltage-clamp, oocytes, pentameric β-3a-α^VFL-β-α-α
Details: NS9283 pEC50, β-3a-α^VFL-β-α-α; coapplied with 10 µM ACh
value-type: EC50 (µM)

mol_smiles=N#Cc1cccc(-c2nc(-c3cccnc3)no2)c1 value_type=EC50 display_unit=µM measured_value=6.31

---

Target: α4β2 nAChR from β-6-α-9-β-6-α and α4^VFL (1:5) (Homo sapiens, UniProt P17787+P43681, H142V/Q150F/T152L)
Sequence (P17787 26-502): as the sequence (P17787 26-502) above
Sequence (P43681 27-627, stated change not applied): as the sequence (P43681 27-627) above
Sequence (P43681 34-627 H142V/Q150F/T152L limits assumed): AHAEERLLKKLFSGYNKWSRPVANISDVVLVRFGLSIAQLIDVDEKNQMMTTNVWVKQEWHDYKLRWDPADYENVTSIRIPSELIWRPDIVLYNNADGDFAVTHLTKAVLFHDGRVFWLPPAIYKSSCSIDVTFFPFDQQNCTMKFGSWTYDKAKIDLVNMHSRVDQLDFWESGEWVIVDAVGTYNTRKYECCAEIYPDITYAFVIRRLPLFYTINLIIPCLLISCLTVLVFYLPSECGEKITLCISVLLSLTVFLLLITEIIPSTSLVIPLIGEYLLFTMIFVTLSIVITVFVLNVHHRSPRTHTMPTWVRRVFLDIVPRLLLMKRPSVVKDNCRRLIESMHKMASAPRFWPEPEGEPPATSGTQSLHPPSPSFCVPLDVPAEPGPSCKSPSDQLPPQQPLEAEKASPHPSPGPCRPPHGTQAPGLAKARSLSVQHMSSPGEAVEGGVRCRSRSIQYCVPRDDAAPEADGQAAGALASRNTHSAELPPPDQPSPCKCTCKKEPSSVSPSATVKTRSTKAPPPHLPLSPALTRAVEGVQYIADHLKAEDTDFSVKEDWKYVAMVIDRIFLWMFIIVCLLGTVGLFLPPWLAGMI
Test: two-electrode voltage-clamp, oocytes, β-6-α-9-β-6-α and α4^VFL 1:5
Conditions: NS9283 pEC50, β-6-α-9-β-6-α + α4^VFL 1:5; coapplied with 10 µM ACh
pEC50: −log10 of the molar value.
value-type: pEC50

mol_smiles=N#Cc1cccc(-c2nc(-c3cccnc3)no2)c1 value_type=pEC50 measured_value=5.10

---

Biological target: α4β2 nAChR from β-21a-α-α-β-α (Homo sapiens, UniProt P17787+P43681)
Assay: two-electrode voltage-clamp, oocytes, pentameric β-21a-α-α-β-α
pEC50: −log10 of the molar value.
value-type: pEC50

compound="N#Cc1cccc(-c2nc(-c3cccnc3)no2)c1 [NS9283]" measured_value=5.30

---

Molecular target: α4β2 nAChR from β-21a-α-β-α-α^VFL (Homo sapiens, UniProt P17787+P43681, H142V/Q150F/T152L)
Sequence (P43681 27-627 H142V/Q150F/T152L, one chain of several): as the sequence (P43681 27-627 H142V/Q150F/T152L, one chain of several) above
Experiment: two-electrode voltage-clamp, oocytes, pentameric β-21a-α-β-α-α^VFL
Format: cell-based
pEC50: −log10 of the molar value.
value-type: pEC50

mol_smiles=N#Cc1cccc(-c2nc(-c3cccnc3)no2)c1 measured_value=5.30

---

Target: α4β2 nAChR from β-6a-α and α4^VFL (1:1) (Homo sapiens, UniProt P17787+P43681, H142V/Q150F/T152L)
Sequence (P17787 26-502): as the sequence (P17787 26-502) above
Sequence (P43681 27-627, stated change not applied): as the sequence (P43681 27-627) above
Sequence (P43681 27-627 H142V/Q150F/T152L): as the sequence (P43681 27-627) above, with H116V, Q124F, T126L counted along it
Test: two-electrode voltage-clamp, oocytes, β-6a-α and α4^VFL
Settings: NS9283 pEC50, β-6a-α + α4^VFL; coapplied with 10 µM ACh
value-type: EC50 (µM)

compound="N#Cc1cccc(-c2nc(-c3cccnc3)no2)c1 [NS9283]" value_type=EC50 display_unit=µM measured_value=10

---

Target: α4β2 nAChR from β-9a-α alone (Homo sapiens, UniProt P17787+P43681)
Assay: two-electrode voltage-clamp, oocytes, β-9a-α alone
pEC50: −log10 of the molar value.
value-type: pEC50

mol_smiles=N#Cc1cccc(-c2nc(-c3cccnc3)no2)c1 value_type=pEC50 measured_value=5.00

---

Biological target: (α4)3(β2)2 nAChR from α4 and β2 (10:1) (Homo sapiens, UniProt P17787+P43681)
Sequence (P43681 27-627): as the sequence (P43681 27-627) above
Sequence (P17787 26-502): as the sequence (P17787 26-502) above
Test: two-electrode voltage-clamp, X. laevis oocytes, α4 and β2 cRNA 10:1
value-type: EC50

mol_smiles=N#Cc1cccc(-c2nc(-c3cccnc3)no2)c1 value_type=EC50 measured_value="5.01 µM"

---

Biological target: α4β2 nAChR from β-6a-α alone (Homo sapiens, UniProt P17787+P43681)
Experiment: two-electrode voltage-clamp, oocytes, β-6a-α alone
value-type: EC50 (µM)

compound="N#Cc1cccc(-c2nc(-c3cccnc3)no2)c1 [NS9283]" measured_value=3.98
